target: D(2) dopamine receptor (Rattus norvegicus, UniProt P61169); assay: In vito ability to inhibit binding of radioligand [3H]spiroperidol to dopamine D2 receptor in rat corpora striata
Sequence (P61169 whole entry): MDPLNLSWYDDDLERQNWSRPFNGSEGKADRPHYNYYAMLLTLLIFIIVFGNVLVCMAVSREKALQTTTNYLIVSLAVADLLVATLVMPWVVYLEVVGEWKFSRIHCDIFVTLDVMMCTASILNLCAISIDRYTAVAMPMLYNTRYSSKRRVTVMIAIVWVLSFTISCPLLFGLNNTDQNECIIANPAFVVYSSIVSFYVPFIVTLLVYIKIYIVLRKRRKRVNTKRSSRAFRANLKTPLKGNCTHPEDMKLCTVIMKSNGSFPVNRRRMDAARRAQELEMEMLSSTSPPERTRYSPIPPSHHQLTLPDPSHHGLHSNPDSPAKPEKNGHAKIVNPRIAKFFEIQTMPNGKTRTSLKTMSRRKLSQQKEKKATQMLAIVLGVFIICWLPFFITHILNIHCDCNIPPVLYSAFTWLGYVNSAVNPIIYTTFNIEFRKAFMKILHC
Value Kind: Ki (nM)

{"Smiles Representation": "COc1cccc2c1C(CCCN1CCN(c3ccccn3)CC1)=CCC2", "Units Text": "nM", "Value Observed": 29.5}

----------
molecular target: D(2) dopamine receptor (Rattus norvegicus, UniProt P61169); assay: Inhibition of binding of radioligand [3H]spiroperidol to dopamine D2 receptor in rat striatal membranes
pIC50: −log10 of the molar value.

{"Smiles Representation": "COc1cccc2c1C(CCCN1CCN(c3ccccc3)CC1)=CCC2", "Inequality Sign": "=", "pIC50": 6.52}
{"Smiles Representation": "COc1ccc2c(c1)CCC=C2CCCN1CCN(c2cc(OC)ccc2OC)CC1", "Inequality Sign": "=", "pIC50": 6.70}
{"Smiles Representation": "COc1ccccc1N1CCN(CCCC2=CCCc3cccc(OC)c32)CC1", "Inequality Sign": "=", "pIC50": 7.76}
{"Smiles Representation": "COc1ccc2c(c1)CCC=C2CCCN1CCN(c2cccc(Cl)c2)CC1", "Inequality Sign": "=", "pIC50": 6.11}
{"Smiles Representation": "COc1cccc2c1C(CCCN1CCN(c3cccc(C(F)(F)F)c3)CC1)=CCC2", "Inequality Sign": "=", "pIC50": 6.19}
{"Smiles Representation": "COc1ccc2c(c1)CCC=C2CCCN1CCNCC1", "Inequality Sign": "<", "pIC50": 5.00}
{"Smiles Representation": "COc1ccc2c(c1)CCC=C2CCCN1CCN(c2cccc(C(F)(F)F)c2)CC1", "Inequality Sign": "=", "pIC50": 5.89}

----------
target: D(2) dopamine receptor (Rattus norvegicus); assay: In vitro ability to inhibit binding of radioligand [3H]spiroperidol to dopamine D2 receptor in rat striatal membranes; assay type: cell membranes, Membrane
pKi: −log10 of the molar value.

{"Smiles Representation": "COc1ccccc1N1CCN(CCCCN2C(=O)c3ccccc3C2=O)CC1", "Measured Target": "D(2) dopamine receptor (Rattus norvegicus)", "pKi": 8.02}

----------
biological target: D(2) dopamine receptor (Rattus norvegicus, UniProt P61169); experiment: Inhibition of binding of radioligand [3H]spiroperidol to dopamine D2 receptor in rat striatal membranes
Value Kind: log10 IC50 (log10 of the value in nM)

{"Smiles Representation": "COc1ccc2c(c1)CCC=C2CCCN1CCN(c2ccccc2)CC1", "Value Observed": 2.89}
{"Smiles Representation": "COc1ccccc1N1CCN(CCCC2=CCCc3ccccc32)CC1", "Value Observed": 1.17}
{"Smiles Representation": "COc1cccc2c1C(CCCN1CCN(c3cccc(Cl)c3)CC1)=CCC2", "Value Observed": 2.68}
{"Smiles Representation": "COc1ccc2c(c1)CCC=C2CCCN1CCN(c2ccccn2)CC1", "Value Observed": 2.89}
{"Smiles Representation": "COc1ccc2c(c1)CCC=C2CCCN1CCN(c2ccccc2OC)CC1", "Value Observed": 1.96}
{"Smiles Representation": "COc1cccc2c1C(CCCN1CCN(c3ccccn3)CC1)=CCC2", "Value Observed": 2.08}

----------
Quick reference for IC50 among some molecules
biological target: Serotonin 2 (5-HT2) receptor (Rattus norvegicus, UniProt P30994+P08909+P14842); assay: Inhibition of binding of radioligand [3H]ketanserin to 5-hydroxytryptamine 2 receptor in rat cerebral cortex; format: tissue-based
Value Kind: IC50 (nM)

{"Smiles Representation": "COc1cccc2c1C(CCCN1CCN(c3ccccn3)CC1)=CCC2", "Inequality Sign": "=", "Value Observed": 205}
{"Smiles Representation": "COc1cccc2c1C(CCCN1CCN(c3cccc(Cl)c3)CC1)=CCC2", "Inequality Sign": "=", "Value Observed": 1340}
{"Smiles Representation": "COc1ccc2c(c1)CCC=C2CCCN1CCN(c2ccccc2OC)CC1", "Inequality Sign": "=", "Value Observed": 391}
{"Smiles Representation": "COc1ccc2c(c1)CCC=C2CCCN1CCN(c2cc(OC)ccc2OC)CC1", "Inequality Sign": "=", "Value Observed": 932}
{"Smiles Representation": "COc1ccc2c(c1)CCC=C2CCCN1CCN(c2ccccn2)CC1", "Inequality Sign": "=", "Value Observed": 146}
{"Smiles Representation": "COc1cccc2c1C(CCCN1CCN(c3cccc(C(F)(F)F)c3)CC1)=CCC2", "Inequality Sign": "=", "Value Observed": 2370}
{"Smiles Representation": "COc1cccc2c1C(CCCN1CCN(c3ccccc3)CC1)=CCC2", "Inequality Sign": "=", "Value Observed": 204}
{"Smiles Representation": "COc1ccc2c(c1)CCC=C2CCCN1CCN(c2cccc(C(F)(F)F)c2)CC1", "Inequality Sign": "=", "Value Observed": 1170}
{"Smiles Representation": "COc1ccc2c(c1)CCC=C2CCCN1CCNCC1", "Inequality Sign": ">", "Value Observed": 10000}
{"Smiles Representation": "COc1ccc2c(c1)CCC=C2CCCN1CCN(c2cccc(Cl)c2)CC1", "Inequality Sign": "=", "Value Observed": 133}
{"Smiles Representation": "COc1ccc2c(c1)CCC=C2CCCN1CCN(c2ccccc2)CC1", "Inequality Sign": "=", "Value Observed": 119}
{"Smiles Representation": "COc1ccccc1N1CCN(CCCC2=CCCc3ccccc32)CC1", "Inequality Sign": "=", "Value Observed": 104}
{"Smiles Representation": "COc1ccccc1N1CCN(CCCC2=CCCc3cccc(OC)c32)CC1", "Inequality Sign": "=", "Value Observed": 770}

----------
Quick reference for pIC50 among some compounds
Molecular target: 5-hydroxytryptamine receptor 1A (Rattus norvegicus, UniProt P19327)
Sequence (P19327 whole entry): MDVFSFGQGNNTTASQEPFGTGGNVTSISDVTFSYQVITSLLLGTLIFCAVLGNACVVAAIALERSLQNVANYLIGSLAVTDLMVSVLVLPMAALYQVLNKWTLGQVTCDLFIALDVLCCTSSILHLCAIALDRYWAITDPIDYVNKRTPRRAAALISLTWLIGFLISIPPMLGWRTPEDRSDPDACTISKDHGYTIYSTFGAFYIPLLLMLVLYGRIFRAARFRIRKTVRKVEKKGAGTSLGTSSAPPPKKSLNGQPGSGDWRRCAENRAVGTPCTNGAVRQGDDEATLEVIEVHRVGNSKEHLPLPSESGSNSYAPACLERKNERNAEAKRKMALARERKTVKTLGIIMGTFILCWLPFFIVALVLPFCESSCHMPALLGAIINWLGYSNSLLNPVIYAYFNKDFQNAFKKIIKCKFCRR
pIC50: −log10 of the molar value.
Value Kind: pIC50

{"Smiles Representation": "COc1ccccc1N1CCN(CCCC2=CCCc3ccccc32)CC1", "Measured Target": "5-hydroxytryptamine receptor 1A (Rattus norvegicus, UniProt P19327)", "Value Kind": "pIC50", "Inequality Sign": "=", "Value Observed": 7.80}
{"Smiles Representation": "COc1cccc2c1C(CCCN1CCN(c3ccccn3)CC1)=CCC2", "Measured Target": "5-hydroxytryptamine receptor 1A (Rattus norvegicus, UniProt P19327)", "Value Kind": "pIC50", "Inequality Sign": "=", "Value Observed": 8.85}
{"Smiles Representation": "COc1ccc2c(c1)CCC=C2CCCN1CCNCC1", "Measured Target": "5-hydroxytryptamine receptor 1A (Rattus norvegicus, UniProt P19327)", "Value Kind": "pIC50", "Inequality Sign": "<", "Value Observed": 5.00}
{"Smiles Representation": "COc1ccc2c(c1)CCC=C2CCCN1CCN(c2ccccc2OC)CC1", "Measured Target": "5-hydroxytryptamine receptor 1A (Rattus norvegicus, UniProt P19327)", "Value Kind": "pIC50", "Inequality Sign": "=", "Value Observed": 8.70}
{"Smiles Representation": "COc1ccccc1N1CCN(CCCC2=CCCc3cccc(OC)c32)CC1", "Measured Target": "5-hydroxytryptamine receptor 1A (Rattus norvegicus, UniProt P19327)", "Value Kind": "pIC50", "Inequality Sign": "=", "Value Observed": 8.06}

The measurements presented in this section are drawn from ChEMBL document CHEMBL1127502.
